subjectOfTest: Recombinant human FAP (Homo sapiens)
Construct: purchased R&D systems
Sequence (Q12884 1-760): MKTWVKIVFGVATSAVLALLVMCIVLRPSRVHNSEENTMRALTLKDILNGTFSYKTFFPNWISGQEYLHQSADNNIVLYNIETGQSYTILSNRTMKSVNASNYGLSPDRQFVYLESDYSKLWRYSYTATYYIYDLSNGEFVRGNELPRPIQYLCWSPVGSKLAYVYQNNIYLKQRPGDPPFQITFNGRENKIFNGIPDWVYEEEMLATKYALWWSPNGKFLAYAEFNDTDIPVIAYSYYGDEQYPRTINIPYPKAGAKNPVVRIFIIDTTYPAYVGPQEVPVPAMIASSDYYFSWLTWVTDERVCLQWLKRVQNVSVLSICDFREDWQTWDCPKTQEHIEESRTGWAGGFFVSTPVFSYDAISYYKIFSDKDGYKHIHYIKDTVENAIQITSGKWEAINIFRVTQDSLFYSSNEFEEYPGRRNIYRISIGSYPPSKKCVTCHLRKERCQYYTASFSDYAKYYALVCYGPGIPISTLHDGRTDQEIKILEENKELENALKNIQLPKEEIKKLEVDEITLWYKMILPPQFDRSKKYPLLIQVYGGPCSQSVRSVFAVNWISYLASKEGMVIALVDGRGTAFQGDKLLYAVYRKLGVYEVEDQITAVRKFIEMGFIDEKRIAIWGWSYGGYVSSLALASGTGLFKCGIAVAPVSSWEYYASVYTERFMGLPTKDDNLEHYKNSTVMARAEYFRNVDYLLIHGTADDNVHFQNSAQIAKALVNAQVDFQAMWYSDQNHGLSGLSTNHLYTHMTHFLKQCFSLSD
assaySummary: FAP FRET assay, FGF21-sequence FRET peptide substrate
Type: biochemical
measurementParameters: FRET peptide with human FGF21 sequence, 6 μM, 37° C.
endpointLabel: pIC50
Worth noting: pIC50 values are minus log10 of concentrations stated in mol/L.

Report measured pIC50; entry is N#C[C@@H]1C[C@H](F)CN1C(=O)CN1CC[C@@H](Nc2ccnc3c(F)cccc23)C1
7.96

Report measured pIC50; entry is N#C[C@@H]1CCCN1C(=O)CN1CC[C@@H](Nc2ccc3nc(C(F)(F)F)ccc3c2)C1
8.06

Report measured pIC50; entry is Cc1ccc2ncc(N(C)C3CCN(CC(=O)N4CCC[C@H]4C#N)CC3)cc2c1
7.99

Report measured pIC50; entry is N#C[C@@H]1C[C@H](F)CN1C(=O)CN1CC[C@H](Nc2ccc(C(=O)Nc3ccncc3)c3ncccc23)C1
8.89

Report measured pIC50; entry is COc1cccc2cc(N(C)C3CCN(CC(=O)N4CCC[C@H]4C#N)CC3)cnc12
8.05

Report measured pIC50; entry is Cc1ccc2ncc(NC3CCN(CC(=O)N4C[C@@H](F)C[C@H]4C#N)CC3)cc2c1
7.51

* * *

subjectOfTest: recombinant human DPP7 (Homo sapiens, UniProt Q9UHL4)
Construct: purchased R&D Systems
assaySummary: DPP7 inhibition, fluorogenic substrate Lys-Pro-AMC
Format: biochemical
measurementParameters: recombinant human DPP7
Protocol: The compounds according to the present technology were evaluated in terms of the inhibitory effect on the activity of dipeptidyl peptidases including FAP by using a substrate producing fluorescent substances upon enzymatic decomposition. […] Fluorescence intensity was measured using a microplate reader (Flexstation3, Molecular Devices) under the wavelength condition exciting at 380 nm and reading the emission at 460 nm. […]
Lab note: anything with IC50 below 1000 nM is marked met; values at 1000 nM or higher are marked not met.

For this compound, is IC50 lower than 1000 nM? N#C[C@@H]1CCCN1C(=O)CN1CC[C@H](Nc2cnc3ccccc3c2)C1
not met

For this compound, is IC50 lower than 1000 nM? N#C[C@@H]1CCCN1C(=O)CN1CCC(Nc2ccc(C(=O)Nc3ccccc3)c3ncccc23)CC1
met

For this compound, is IC50 lower than 1000 nM? N#C[C@@H]1C[C@H](F)CN1C(=O)CN1CC[C@H](Nc2ccc(OCc3ccccc3)c3ncccc23)C1
met

For this compound, is IC50 lower than 1000 nM? N#C[C@@H]1C[C@H](F)CN1C(=O)CN1CCC(Nc2ccnc3c(Cl)cccc23)CC1
not met

For this compound, is IC50 lower than 1000 nM? N#C[C@@H]1C[C@H](F)CN1C(=O)CN1CC[C@@H](Nc2cccc3ncccc23)C1
met

For this compound, is IC50 lower than 1000 nM? N#C[C@@H]1CCCN1C(=O)CN1CC[C@H](Nc2ccc(OC(F)(F)F)c3ncccc23)C1
not met

For this compound, is IC50 lower than 1000 nM? N#C[C@@H]1C[C@H](F)CN1C(=O)CN1CCC(Oc2cncc3ccccc23)CC1
not met

For this compound, is IC50 lower than 1000 nM? N#C[C@@H]1C[C@H](F)CN1C(=O)CN1CCC(Nc2ccnc3ccc(F)cc23)CC1
met

* * *

subjectOfTest: recombinant human PREP (Homo sapiens)
Construct: purchased R&D System
Sequence (P48147 1-710): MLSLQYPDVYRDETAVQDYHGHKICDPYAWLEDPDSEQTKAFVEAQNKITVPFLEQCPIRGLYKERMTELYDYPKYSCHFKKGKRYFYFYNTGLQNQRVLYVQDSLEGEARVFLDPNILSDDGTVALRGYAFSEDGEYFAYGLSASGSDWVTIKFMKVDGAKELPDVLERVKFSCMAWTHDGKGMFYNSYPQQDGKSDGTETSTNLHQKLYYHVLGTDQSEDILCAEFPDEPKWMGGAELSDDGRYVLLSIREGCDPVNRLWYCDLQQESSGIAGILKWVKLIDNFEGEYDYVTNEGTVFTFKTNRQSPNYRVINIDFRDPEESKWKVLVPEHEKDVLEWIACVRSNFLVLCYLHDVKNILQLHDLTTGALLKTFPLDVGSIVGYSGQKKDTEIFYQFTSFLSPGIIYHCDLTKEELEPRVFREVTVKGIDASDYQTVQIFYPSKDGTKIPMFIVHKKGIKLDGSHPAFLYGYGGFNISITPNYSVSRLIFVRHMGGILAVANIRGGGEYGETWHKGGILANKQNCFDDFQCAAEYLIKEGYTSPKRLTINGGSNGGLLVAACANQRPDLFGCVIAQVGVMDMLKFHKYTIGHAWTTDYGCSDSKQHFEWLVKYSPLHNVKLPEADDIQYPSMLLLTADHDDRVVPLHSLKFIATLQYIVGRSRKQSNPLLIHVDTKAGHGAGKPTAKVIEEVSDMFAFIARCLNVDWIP
assaySummary: PREP inhibition, fluorogenic substrate Z-Gly-Pro-AMC
Format: biochemical
measurementParameters: Inhibitory Activity (IC50, nM) PREP, 25° C., Z-Gly-Pro-AMC substrate
endpointLabel: IC50

Consider the molecule COc1ccc2ncc(N(C)[C@H]3CCN(CC(=O)N4CCC[C@H]4C#N)C3)cc2c1 tested on recombinant human PREP (Homo sapiens); state its IC50.
4130 nM

Consider the molecule CN(c1cnc2ccccc2c1)[C@@H]1CCN(CC(=O)N2CCC[C@H]2C#N)C1 tested on recombinant human PREP (Homo sapiens); state its IC50.
7970 nM

Consider the molecule CN(c1cnc2ccc(F)cc2c1)[C@H]1CCN(CC(=O)N2CCC[C@H]2C#N)C1 tested on recombinant human PREP (Homo sapiens); state its IC50.
3090 nM

Consider the molecule N#C[C@@H]1CC(F)(F)CN1C(=O)CN1CC[C@H](Nc2cccc(-c3ccccc3)c2)C1 tested on recombinant human PREP (Homo sapiens); state its IC50.
> 100000 nM

Consider the molecule Cc1ccc2ncc(N(C)[C@H]3CCN(CC(=O)N4CCC[C@H]4C#N)C3)cc2c1 tested on recombinant human PREP (Homo sapiens); state its IC50.
2640 nM

Consider the molecule N#C[C@@H]1CC(F)(F)CN1C(=O)CN1CC[C@H](Oc2ccc(Cl)c3cccnc23)C1 tested on recombinant human PREP (Homo sapiens); state its IC50.
4140 nM

Consider the molecule N#C[C@@H]1CCCN1C(=O)CN1CCC(Oc2cccc3ncccc23)CC1 tested on recombinant human PREP (Homo sapiens); state its IC50.
3760 nM

Consider the molecule N#C[C@@H]1CCCN1C(=O)CN1CC[C@H](NC(=O)c2coc3c(F)cc(F)cc23)C1 tested on recombinant human PREP (Homo sapiens); state its IC50.
13400 nM

Consider the molecule COc1cc(NC2CCN(CC(=O)N3CCC[C@H]3C#N)CC2)c2cccnc2c1 tested on recombinant human PREP (Homo sapiens); state its IC50.
16100 nM

Consider the molecule COc1ccc2c(C(=O)N[C@H]3CCN(CC(=O)N4CCC[C@H]4C#N)C3)coc2c1 tested on recombinant human PREP (Homo sapiens); state its IC50.
5500 nM

Consider the molecule N#C[C@@H]1CCCN1C(=O)CN1CC[C@H](NC(=O)c2coc3cccc(O)c23)C1 tested on recombinant human PREP (Homo sapiens); state its IC50.
6750 nM

Consider the molecule COc1ccc2c(C(=O)N[C@H]3CCN(CC(=O)N4C[C@@H](F)C[C@H]4C#N)C3)coc2c1 tested on recombinant human PREP (Homo sapiens); state its IC50.
5150 nM

Consider the molecule N#C[C@@H]1CCCN1C(=O)CN1CC[C@@H](Nc2cnc3ccccc3c2)C1 tested on recombinant human PREP (Homo sapiens); state its IC50.
6960 nM

Consider the molecule COc1cc2nccc(OC3CCN(CC(=O)N4C[C@@H](F)C[C@H]4C#N)CC3)c2cc1OC tested on recombinant human PREP (Homo sapiens); state its IC50.
2340 nM

Consider the molecule N#C[C@@H]1CCCN1C(=O)CN1CC[C@H](Oc2ccc(Cl)c3cccnc23)C1 tested on recombinant human PREP (Homo sapiens); state its IC50.
3930 nM

Consider the molecule N#C[C@@H]1CCCN1C(=O)CN1CCC(Nc2cc(F)cc3ncccc23)CC1 tested on recombinant human PREP (Homo sapiens); state its IC50.
20100 nM

Consider the molecule N#C[C@@H]1CCCN1C(=O)CN1CC[C@H](NC(=O)c2cc3ccccc3s2)C1 tested on recombinant human PREP (Homo sapiens); state its IC50.
6450 nM

The reported numbers originate from patent US11655235B2.
